# System: SMARCA4 (Homo sapiens)
# Construct: SMARCA2/SMARCA4 protein degradation selectivity in MV4-11 cells; endogenous in cells; host or cells: MV4-11
# Test Details: SMARCA4 Western blot degradation in MV4-11 cells
# Assay type: cell-based
# Stated Conditions: MV4-11 cells, 24 h; read-out: SMARCA4 MSD MV411 degradation 24 h: Mean external-Abs DC50
Measurement Name: DC50

1) C#Cc1ccc(CNC(=O)[C@@H]2C[C@@H](O)CN2C(=O)[C@@H](NC(=O)N2CC3(CC(N4CCC(c5cnc(N6CCc7[nH]c8nnc(-c9ccccc9O)cc8c7[C@H]6C)nc5)CC4)C3)C2)C(C)(C)C)c(OCCCC(=O)O)c1 | 10 to 100 nM
2) C#Cc1ccc(CNC(=O)[C@@H]2C[C@@H](O)CN2C(=O)[C@@H](NC(=O)N2CC3(CC(N4CCC(N5CCC(N6CCc7[nH]c8nnc(-c9ccccc9O)cc8c7[C@@H]6C)CC5)CC4)C3)C2)C(C)(C)C)c(F)c1 | > 100 nM
3) C#Cc1ccc(CNC(=O)[C@@H]2C[C@@H](O)CN2C(=O)[C@@H](NC(=O)[C@H]2CCC3(CC2)C[C@H](N2CCC(N4CCC(N5CCN6c7cc(-c8ccccc8O)nnc7NC[C@H]6C5)CC4)CC2)C3)C(C)(C)C)c(Cl)c1 (stereo partly shown) [I-222] | > 100 nM
4) C#Cc1ccc([C@H](C)NC(=O)[C@@H]2C[C@@H](O)CN2C(=O)[C@@H](NC(=O)N2CC3(CC(N4CCC(c5cnc(N6CCc7[nH]c8nnc(-c9ccccc9O)cc8c7[C@H]6C)nc5)CC4)C3)C2)C(C)(C)C)c(O)c1 | > 100 nM

###

# System: SMARCA4 (Homo sapiens, UniProt P51532)
# Construct: SMARCA2/SMARCA4 protein degradation selectivity in MV4-11 cells; endogenous in cells; host or cells: MV4-11
# Sequence (P51532 whole entry): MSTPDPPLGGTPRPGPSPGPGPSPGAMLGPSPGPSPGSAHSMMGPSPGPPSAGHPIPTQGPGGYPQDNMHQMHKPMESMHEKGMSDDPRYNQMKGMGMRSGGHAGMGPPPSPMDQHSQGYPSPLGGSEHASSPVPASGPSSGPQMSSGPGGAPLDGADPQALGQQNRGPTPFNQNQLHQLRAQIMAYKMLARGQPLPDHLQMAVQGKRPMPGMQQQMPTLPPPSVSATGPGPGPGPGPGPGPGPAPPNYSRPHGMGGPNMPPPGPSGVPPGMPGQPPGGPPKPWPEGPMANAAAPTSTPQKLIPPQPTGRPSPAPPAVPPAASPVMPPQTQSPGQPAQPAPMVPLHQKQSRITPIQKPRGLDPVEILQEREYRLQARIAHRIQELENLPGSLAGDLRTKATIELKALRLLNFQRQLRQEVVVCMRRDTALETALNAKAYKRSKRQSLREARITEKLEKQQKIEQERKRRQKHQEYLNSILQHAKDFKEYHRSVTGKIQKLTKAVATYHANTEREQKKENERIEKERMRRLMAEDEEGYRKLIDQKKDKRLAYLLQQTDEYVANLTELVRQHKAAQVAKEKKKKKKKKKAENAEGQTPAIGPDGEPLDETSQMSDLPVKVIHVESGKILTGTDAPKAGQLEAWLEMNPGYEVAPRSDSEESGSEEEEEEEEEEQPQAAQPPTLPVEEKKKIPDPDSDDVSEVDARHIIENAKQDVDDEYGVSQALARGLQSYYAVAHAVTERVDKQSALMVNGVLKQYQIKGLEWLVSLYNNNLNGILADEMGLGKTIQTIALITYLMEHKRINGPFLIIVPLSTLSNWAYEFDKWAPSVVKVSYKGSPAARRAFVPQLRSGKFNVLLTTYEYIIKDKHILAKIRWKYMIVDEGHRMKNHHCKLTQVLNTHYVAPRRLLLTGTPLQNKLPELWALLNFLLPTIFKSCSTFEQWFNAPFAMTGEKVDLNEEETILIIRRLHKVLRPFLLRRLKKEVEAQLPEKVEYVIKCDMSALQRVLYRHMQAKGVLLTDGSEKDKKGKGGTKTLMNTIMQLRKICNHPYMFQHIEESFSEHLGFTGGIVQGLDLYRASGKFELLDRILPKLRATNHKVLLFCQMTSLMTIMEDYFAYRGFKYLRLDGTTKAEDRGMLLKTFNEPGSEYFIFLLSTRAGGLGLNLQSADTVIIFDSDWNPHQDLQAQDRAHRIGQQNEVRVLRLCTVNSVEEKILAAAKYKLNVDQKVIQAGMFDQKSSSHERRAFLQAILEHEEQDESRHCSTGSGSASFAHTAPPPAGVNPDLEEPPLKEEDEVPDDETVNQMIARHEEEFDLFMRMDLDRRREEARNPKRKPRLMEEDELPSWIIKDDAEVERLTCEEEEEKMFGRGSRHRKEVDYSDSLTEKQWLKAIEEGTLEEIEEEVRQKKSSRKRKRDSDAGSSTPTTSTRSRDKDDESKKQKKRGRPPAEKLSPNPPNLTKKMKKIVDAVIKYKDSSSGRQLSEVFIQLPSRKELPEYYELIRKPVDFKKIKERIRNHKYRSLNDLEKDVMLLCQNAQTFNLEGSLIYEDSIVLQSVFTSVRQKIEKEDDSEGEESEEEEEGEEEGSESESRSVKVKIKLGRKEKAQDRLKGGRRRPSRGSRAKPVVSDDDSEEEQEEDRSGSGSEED
# Test Details: SMARCA4 Western blot degradation in MV4-11 cells
# Type: cell-based
# Stated Conditions: MV4-11, MV4-11 cells, 24 h; read-out: SMARCA4 MSD MV411 degradation 24 h: average Dmax %
Measurement Name: Dmax

1) Cc1cc(Cl)ccc1C#CCNC(=O)[C@@H]1C[C@@H](O)CN1C(=O)[C@@H](NC(=O)[C@H]1CCC2(CC1)C[C@H](N1CCC(c3cnc(N4CCN5c6cc(-c7ccccc7O)nnc6NC[C@H]5C4)nc3)CC1)C2)C(C)(C)C (single isomer, unassigned) | 70 to 90%
2) C#Cc1ccc(CNC(=O)[C@@H]2C[C@@H](O)CN2C(=O)[C@@H](NC(=O)N2CCN(C[C@H]3CC[C@H](N4CCC(N5CCc6[nH]c7nnc(-c8ccccc8O)cc7c6[C@H]5C)CC4)CC3)CC2)C(C)(C)C)cc1 | < 50%
3) C#Cc1ccc(CNC(=O)[C@@H]2C[C@@H](O)CN2C(=O)[C@@H](NC(=O)N2CC3(CC(N4CCC(c5cnc(N6CCc7[nH]c8nnc(-c9ccccc9O)cc8c7[C@H]6CO)nc5)CC4)C3)C2)C(C)(C)C)c(Cl)c1 | 70 to 90%
4) C#Cc1ccc([C@H](C)NC(=O)[C@@H]2C[C@@H](O)CN2C(=O)C(c2cc(N3CCC(CN4CCC(N5CCC(N6CCN7c8cc(-c9ccccc9O)nnc8NC[C@H]7C6)CC5)CC4)CC3)no2)C(C)C)c(Cl)c1 (some centres unmarked) | < 50%
5) C#Cc1ccc(CNC(=O)[C@@H]2C[C@@H](O)CN2C(=O)[C@@H](NC(=O)N2CC3(CC(N4CCC(c5cnc(N6CCc7[nH]c8nnc(-c9ccccc9O)cc8c7[C@H]6C)nc5)CC4)C3)C2)C(C)(C)C)c(OCCCC(=O)O)c1 | > 90%
6) C#Cc1ccc(CNC(=O)[C@@H]2C[C@@H](O)CN2C(=O)[C@@H](NC(=O)N2CC3(CC(CN4CCC(N5CCC(N6CCc7[nH]c8nnc(-c9ccccc9O)cc8c7[C@H]6C)CC5)CC4)C3)C2)C(C)(C)C)cc1 | 50 to 70%
7) Cc1ncsc1-c1ccc(CNC(=O)[C@@H]2C[C@@H](O)CN2C(=O)[C@@H](NC(=O)[C@H]2CC3(CC[C@H](N4CCN(c5ccnc(N6CCc7[nH]c8nnc(-c9ccccc9O)cc8c7[C@H]6C)n5)CC4)CC3)C2)C(C)(C)C)cc1 (some centres unmarked) | > 90%
8) C#Cc1ccc(CNC(=O)[C@@H]2C[C@@H](O)CN2C(=O)[C@@H](NC(=O)N2CC3(CC(N4CCC(N5CCC(N6CCc7[nH]c8nnc(-c9ccccc9O)cc8c7[C@H]6C)CC5)CC4)C3)C2)C(C)(C)C)c(F)c1 | < 50%
9) C#Cc1ccc(CNC(=O)[C@@H]2C[C@@H](O)CN2C(=O)[C@@H](NC(=O)N2CC3(CC(N4CCC(N5CC6(CC(N7CCc8[nH]c9nnc(-c%10ccccc%10O)cc9c8[C@H]7C)C6)C5)CC4)C3)C2)C(C)(C)C)cc1 | < 50%
10) C#Cc1ccc(CNC(=O)[C@@H]2C[C@@H](O)CN2C(=O)[C@@H](NC(=O)N2CCN(C[C@H]3CC[C@H](N4CCc5[nH]c6nnc(-c7ccccc7O)cc6c5[C@H]4C)CC3)CC2)C(C)(C)C)cc1 | < 50%
11) C#Cc1ccc([C@H](CO)NC(=O)[C@@H]2C[C@@H](O)CN2C(=O)[C@@H](NC(=O)N2CC3(CC(N4CCC(c5cnc(N6CCc7[nH]c8nnc(-c9ccccc9O)cc8c7[C@H]6C)nc5)CC4)C3)C2)C(C)(C)C)nc1 (single isomer, unassigned) | < 50%
12) C#Cc1ccc(CNC(=O)[C@@H]2C[C@@H](O)CN2C(=O)[C@@H](NC(=O)c2ccc(N3CCC(N4CCC(N5CCN6c7cc(-c8ccccc8O)nnc7NC[C@H]6C5)CC4)CC3)cc2)C(C)(C)C)cc1 | 70 to 90%
13) Cc1ncsc1-c1ccc(CNC(=O)[C@@H]2C[C@@H](O)CN2C(=O)[C@@H](NC(=O)[C@H]2CC3(C2)C[C@H](N2CCN(c4cnc(N5CCN6c7cc(-c8ccccc8O)nnc7NC[C@H]6C5)nc4)CC2)C3)C(C)(C)C)cc1 (some centres unmarked) | < 50%
14) C#Cc1ccc(CNC(=O)[C@@H]2C[C@@H](O)CN2C(=O)[C@@H](NC(=O)CCCCCCCN2CCC(N3CC4(CC(N5CCN6c7cc(-c8ccccc8O)nnc7NC[C@H]6C5)C4)C3)CC2)C(C)(C)C)cc1 | < 50%
15) Cc1ncsc1-c1ccc(CNC(=O)[C@@H]2C[C@@H](O)CN2C(=O)[C@@H](NC(=O)N2CC3(CCC(N4CCC(c5cnc(N6CCc7[nH]c8nnc(-c9ccccc9O)cc8c7C6C)nc5)CC4)CC3)C2)C(C)(C)C)cc1 (some centres unmarked) | < 50%
16) Cc1ncsc1-c1ccc(CNC(=O)[C@@H]2C[C@@H](O)CN2C(=O)C(c2cc(N3CCC(CCN4CCC(c5cnc(N6CCc7[nH]c8nnc(-c9ccccc9O)cc8c7[C@H]6C)nc5)CC4)CC3)no2)C(C)C)cc1 (some centres unmarked) | > 90%
17) Cc1ncsc1-c1ccc(CNC(=O)[C@@H]2C[C@@H](O)CN2C(=O)[C@@H](NC(=O)[C@H]2CC3(C2)C[C@H](N2CCC(N4CCC(c5ccc6[nH]c7nnc(-c8ccccc8O)cc7c6c5)CC4)CC2)C3)C(C)(C)C)cc1 (single isomer, unassigned) | < 50%

###

Consider the following compounds and their measured DC50 readings.
# System: SMARCA2 (Homo sapiens)
# Sequence (P51531 whole entry): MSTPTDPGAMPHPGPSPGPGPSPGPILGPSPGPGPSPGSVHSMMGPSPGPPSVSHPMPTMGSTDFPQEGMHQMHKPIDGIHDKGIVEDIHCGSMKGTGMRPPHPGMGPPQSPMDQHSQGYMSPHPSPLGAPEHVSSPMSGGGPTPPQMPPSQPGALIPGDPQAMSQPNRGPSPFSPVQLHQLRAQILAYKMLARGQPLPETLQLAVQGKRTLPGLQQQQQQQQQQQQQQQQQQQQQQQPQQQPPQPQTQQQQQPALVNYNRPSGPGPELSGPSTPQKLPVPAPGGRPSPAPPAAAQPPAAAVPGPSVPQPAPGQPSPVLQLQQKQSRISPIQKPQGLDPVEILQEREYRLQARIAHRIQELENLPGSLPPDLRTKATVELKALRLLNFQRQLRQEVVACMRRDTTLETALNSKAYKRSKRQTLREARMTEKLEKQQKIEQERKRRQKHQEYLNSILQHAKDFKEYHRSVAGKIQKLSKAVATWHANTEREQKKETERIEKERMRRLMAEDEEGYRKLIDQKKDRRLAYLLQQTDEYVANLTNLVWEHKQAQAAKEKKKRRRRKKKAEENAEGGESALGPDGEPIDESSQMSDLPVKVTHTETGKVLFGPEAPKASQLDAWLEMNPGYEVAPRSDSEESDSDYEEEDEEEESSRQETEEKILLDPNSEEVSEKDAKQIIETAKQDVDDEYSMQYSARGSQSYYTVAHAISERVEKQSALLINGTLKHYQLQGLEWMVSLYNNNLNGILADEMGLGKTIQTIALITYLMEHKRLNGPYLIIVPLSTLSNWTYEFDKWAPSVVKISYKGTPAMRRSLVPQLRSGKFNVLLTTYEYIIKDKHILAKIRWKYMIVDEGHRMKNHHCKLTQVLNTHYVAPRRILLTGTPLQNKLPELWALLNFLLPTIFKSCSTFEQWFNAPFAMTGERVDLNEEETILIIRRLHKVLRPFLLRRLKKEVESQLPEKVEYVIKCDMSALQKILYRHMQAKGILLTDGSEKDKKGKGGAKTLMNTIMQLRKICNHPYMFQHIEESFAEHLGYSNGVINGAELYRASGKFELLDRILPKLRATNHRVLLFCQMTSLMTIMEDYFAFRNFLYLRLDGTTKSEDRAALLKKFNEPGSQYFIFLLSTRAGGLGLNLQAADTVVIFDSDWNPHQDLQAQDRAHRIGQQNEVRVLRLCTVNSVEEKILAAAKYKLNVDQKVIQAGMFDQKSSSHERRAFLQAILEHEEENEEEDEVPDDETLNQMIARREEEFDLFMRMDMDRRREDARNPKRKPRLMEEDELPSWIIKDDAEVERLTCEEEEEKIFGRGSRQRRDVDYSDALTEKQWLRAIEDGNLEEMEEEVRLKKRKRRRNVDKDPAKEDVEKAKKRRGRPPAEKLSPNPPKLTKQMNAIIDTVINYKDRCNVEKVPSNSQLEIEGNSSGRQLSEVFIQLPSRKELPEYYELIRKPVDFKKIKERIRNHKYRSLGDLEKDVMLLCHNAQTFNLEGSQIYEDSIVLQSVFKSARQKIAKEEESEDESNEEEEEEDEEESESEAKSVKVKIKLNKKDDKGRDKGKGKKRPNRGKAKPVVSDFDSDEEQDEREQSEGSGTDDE
# Test Details: SMARCA2 Western blot degradation in MV4-11 cells
# Format: cell-based
# Set-up: SMARCA2/SMARCA4 protein degradation selectivity in MV4-11 cells; endogenous in cells; host or cells: MV4-11
# Stated Conditions: MV4-11 cells, 24 h; read-out: SMARCA2 MSD MV411 degradation 24 h: Mean external-Abs DC50
Measurement Name: DC50

1. C#Cc1ccc(CNC(=O)[C@@H]2C[C@@H](O)CN2C(=O)[C@@H](NC(=O)C2CC3(C2)CN(c2cnc(N4CCC(N5CCN6c7cc(-c8ccccc8O)nnc7NC[C@H]6C5)CC4)cn2)C3)C(C)(C)C)cc1 [I-320] | 1 to 10 nM
2. C#Cc1ccc(C2(NC(=O)[C@@H]3C[C@@H](O)CN3C(=O)[C@@H](NC(=O)N3CC4(CC(N5CCC(N6CCC(N7CCc8[nH]c9nnc(-c%10ccccc%10O)cc9c8[C@H]7C)CC6)CC5)C4)C3)C(C)(C)C)CC2)cc1 [I-210] | 10 to 100 nM
3. CC#Cc1ccc(CNC(=O)[C@@H]2C[C@@H](O)CN2C(=O)[C@@H](NC(=O)[C@H]2CCC3(CC2)C[C@H](N2CCC(c4cnc(N5CCN6c7cc(-c8ccccc8O)nnc7NC[C@H]6C5)nc4)CC2)C3)C(C)(C)C)cc1 (single isomer, unassigned) [I-103] | 1 to 10 nM
4. C#Cc1ccc(CNC(=O)[C@@H]2C[C@@H](O)CN2C(=O)[C@@H](NC(=O)N2CCN(Cc3ccc(-c4cnc(N5CCN6c7cc(-c8ccccc8O)nnc7NC[C@H]6C5)nc4)cc3)CC2)C(C)(C)C)cc1 [I-269] | 10 to 100 nM
5. C#Cc1ccc(CNC(=O)[C@@H]2C[C@@H](O)CN2C(=O)[C@@H](NC(=O)N2CCN(C[C@H]3CC[C@H](N4CCc5[nH]c6nnc(-c7ccccc7O)cc6c5[C@H]4C)CC3)CC2)C(C)(C)C)cc1 [I-200] | 10 to 100 nM
6. C#Cc1ccc(CNC(=O)[C@@H]2C[C@@H](O)CN2C(=O)[C@@H](NC(=O)N2CC3(CC(N4CCC(N5CCC(N6CCc7[nH]c8nnc(-c9ccccc9O)cc8c7[C@@H]6C)CC5)CC4)C3)C2)C(C)(C)C)cc1 [I-180] | 10 to 100 nM
7. Cc1ncsc1-c1ccc(CNC(=O)[C@@H]2C[C@@H](O)CN2C(=O)C(c2cc(N3CCC4(CC3)CC(N3CCC(c5cnc(N6CCc7[nH]c8nnc(-c9ccccc9O)cc8c7[C@@H]6C)nc5)CC3)C4)no2)C(C)C)cc1 (single isomer, unassigned) [I-12] | 10 to 100 nM
8. C#Cc1ccc(CNC(=O)[C@@H]2C[C@@H](O)CN2C(=O)[C@@H](NC(=O)N2CCC[C@H](CN3CCC(N4CCC(N5CCN6c7cc(-c8ccccc8O)nnc7NC[C@H]6C5)CC4)CC3)C2)C(C)(C)C)cc1 [I-256] | > 100 nM
9. C#Cc1ccc(CNC(=O)[C@@H]2C[C@@H](O)CN2C(=O)[C@@H](NC(=O)N2CC3(CC(N4CCC(c5cnc(N6CCc7[nH]c8nnc(-c9ccccc9O)cc8c7[C@H]6C)nc5)CC4)C3)C2)C(C)(C)CCN2CCOCC2)cc1 (single isomer, unassigned) [I-338] | > 100 nM
